Reference for the values: the supplement of paper PMC12667976

B1: library; numbered along this chain (parent)
chain: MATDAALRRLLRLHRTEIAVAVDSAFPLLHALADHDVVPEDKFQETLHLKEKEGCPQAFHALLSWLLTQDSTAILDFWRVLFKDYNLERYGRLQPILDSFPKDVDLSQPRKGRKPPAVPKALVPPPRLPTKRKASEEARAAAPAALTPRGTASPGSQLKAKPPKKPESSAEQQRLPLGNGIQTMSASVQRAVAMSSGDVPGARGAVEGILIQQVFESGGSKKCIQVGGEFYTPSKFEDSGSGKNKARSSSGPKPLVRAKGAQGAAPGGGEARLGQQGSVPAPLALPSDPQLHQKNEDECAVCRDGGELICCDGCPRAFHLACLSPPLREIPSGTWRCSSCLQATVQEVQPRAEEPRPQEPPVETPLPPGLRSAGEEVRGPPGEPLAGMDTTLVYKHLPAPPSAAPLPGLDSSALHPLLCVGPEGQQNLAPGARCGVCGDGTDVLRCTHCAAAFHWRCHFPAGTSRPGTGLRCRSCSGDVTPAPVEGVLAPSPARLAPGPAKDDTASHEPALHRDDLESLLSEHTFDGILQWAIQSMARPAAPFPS

Variants of: B1
ASSAY_METHOD_TEXT: AIRE transcriptional activation functional score (insulin promoter-GFP; nonsense median 0, synonymous median 1) (normalised score); higher = higher AIRE activity (more reporter activation)
SETTINGS: with insulin promoter-GFP reporter in HEK293
# label = bin(measured AIRE transcriptional activation functional score), where bins are lower band (below 0.7), central band (0.7 to below 1), upper band (1 or more)

>>> print(df.to_string())
   variant_key       class
0        S217G  upper band

Exam item: Determine which band this variant sits in: I528L
Marked response: lower band

Exam item: Determine which band this variant sits in: W65M
Marked response: lower band

Exam item: Determine which band this variant sits in: R378H
Marked response: central band

Exam item: Determine which band this variant sits in: P509S
Marked response: upper band

Exam item: Determine which band this variant sits in: Q157G
Marked response: upper band

Exam item: Determine which band this variant sits in: L28H
Marked response: lower band

Exam item: Determine which band this variant sits in: T232Q
Marked response: upper band

Exam item: Determine which band this variant sits in: G54D
Marked response: central band

Exam item: Determine which band this variant sits in: S156T
Marked response: upper band
